system: MNNG; experiment: Cell viability assay (MTT), 72 h; format: cell-based; settings: MNNG (OS), read-out: Buparlisib cell viability IC50
pIC50: −log10 of the molar value.
Readout Kind: pIC50

Mol Smiles: Nc1cc(C(F)(F)F)c(-c2cc(N3CCOCC3)nc(N3CCOCC3)n2)cn1
Test Result: 5.80

====

tested on: SJSA; experiment: Cell viability assay (MTT), 72 h; assay type: cell-based; conditions: SJSA (OS), read-out: GDC-0941 cell viability IC50

Compound: CS(=O)(=O)N1CCN(Cc2cc3nc(-c4cccc5[nH]ncc45)nc(N4CCOCC4)c3s2)CC1 [GDC-0941, pictilisib]
IC50 / µM: 0.297
